Please provide measured IC50 for the entries that follow.
# tested system: recombinant, N-terminally GST-tagged ATAD2 bromodomain amino acids 981-1108 (Homo sapiens, UniProt Q6PL18)
# Construct: ATAD2 bromodomain amino acids 981-1108
# Sequence (Q6PL18 981-1108): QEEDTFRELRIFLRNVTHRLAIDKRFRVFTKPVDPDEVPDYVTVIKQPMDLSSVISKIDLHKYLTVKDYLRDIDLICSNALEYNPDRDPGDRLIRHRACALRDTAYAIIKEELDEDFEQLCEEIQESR
# test description: TR-FRET assay: disruption of the interaction between ATAD2 and acetylated Histone H4 (Ac-H4) peptide
# condition context: inhibition of ATAD2/Ac-H4 complex formation; 10 nM ATAD2, 50 nM Ac-H4 peptide
Output spec: scalar in nM, unitless text.

Input line: Look up IC50 for this compound: "Cc1ccc([C@@H](C)NCc2ccc(-c3ccc(Cl)c(C(=O)N[C@@H](C)Cc4ccc(C#N)cc4)c3)o2)cc1"
Output line: 1100

Input line: What do you have for "Cc1ccc([C@@H](C)NCc2ccc(-c3ccc(Cl)c(C(=O)N[C@@H](CCN4CCN[C@@H](C)C4)Cc4ccc(C#N)cc4)c3)o2)cc1" ?
Output line: 148

Input line: What do you have for "Cc1ccc([C@@H](C)NCc2ccc(-c3ccc(Cl)c(C(=O)N[C@@H](CN)Cc4ccc(C#N)cc4)c3)o2)cc1" ?
Output line: 273

Input line: What do you have for "COc1cc(C)c(C(=O)N[C@@H](CO)Cc2ccc(C#N)cc2)cc1-c1ccc(CN[C@H](C)c2ccc(C)cc2)o1" ?
Output line: 407

Input line: What do you have for "Cc1ccc([C@@H](C)NCc2ccc(-c3ccc(Cl)c(C(=O)N[C@@H](CC(=O)N4CCOCC4)Cc4ccc(C#N)cc4)c3)o2)cc1" ?
Output line: 674

Input line: What do you have for "Cc1ccc([C@@H](C)NCc2ccc(-c3ccc(Cl)c(C(=O)N[C@@H](CCN4CC5(CN(C)C5)C4)Cc4ccc(C#N)cc4)c3)o2)cc1" ?
Output line: 186

Input line: What do you have for "Cc1ccc([C@@H](C)NCc2ccc(-c3ccc(Cl)c(C(=O)N[C@@H](CC(=O)N4CCN(C)CC4)Cc4ccc(C#N)cc4)c3)o2)cc1" ?
Output line: 822

Input line: What do you have for "Cc1ccc([C@@H](C)NCc2ccc(-c3ccc(Cl)c(C(=O)N[C@@H](CN[C@H]4CCCN(C)C4)Cc4ccc(C#N)cc4)c3)o2)cc1" ?
Output line: 121

Input line: What do you have for "Cc1ccc([C@@H](C)NCc2ccc(-c3ccc(Cl)c(C(=O)N[C@@H](CCN4CCN(C)C[C@@H]4C)Cc4ccc(C#N)cc4)c3)o2)cc1" ?
Output line: 297

Input line: What do you have for "COc1cc(Cl)c(C(=O)N[C@@H](CO)Cc2ccc(C#N)cc2)cc1-c1ccc(CN[C@H](C)c2ccc(C)cc2)o1" ?
Output line: 301

Input line: What do you have for "Cc1ccc([C@@H](C)NCc2ccc(-c3ccc(Cl)c(C(=O)N[C@@H](CCNC(C)C)Cc4ccc(C#N)cc4)c3)o2)cc1" ?
Output line: 331

Input line: What do you have for "Cc1ccc([C@@H](C)NCc2ccc(-c3ccc(Cl)c(C(=O)N[C@@H](CNC4CCNCC4)Cc4ccc(C#N)cc4)c3)o2)cc1" ?
Output line: 265

Input line: What do you have for "Cc1ccc([C@@H](C)NCc2ccc(-c3ccc(Cl)c(C(=O)N[C@@H](CNCCO)Cc4ccc(C#N)cc4)c3)o2)cc1" ?
Output line: 561
